These data points were gathered from patent US20240392024A1.

For each of the binders below, state its EC50.
- system-tested: T1, TNFR2-His (Sino Biological, 10417-H08H, NP_001057.1 Met1-Asp257, with multi-histidine tag expressed on … (human, UniProt P20333 23-257))
- T1 construct: range 1-257; Bought protein; also called recombinant human TNFR2 protein; TNFR2-His antigen; not shown: C-terminal multi-histidine tag
- T1 sequence (looked up): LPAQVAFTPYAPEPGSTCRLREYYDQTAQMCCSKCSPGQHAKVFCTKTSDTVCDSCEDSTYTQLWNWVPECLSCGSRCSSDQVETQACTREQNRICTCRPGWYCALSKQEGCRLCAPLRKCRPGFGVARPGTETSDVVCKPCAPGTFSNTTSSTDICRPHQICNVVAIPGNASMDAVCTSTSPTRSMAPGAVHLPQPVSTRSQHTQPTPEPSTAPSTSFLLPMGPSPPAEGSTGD
- protocol-text: ELISA, plate coated with TNFR2-His
Answers are plain numbers, in µg/mL.

Here's what some known entries look like.
binder: 11G2huVH4 + huVL1(P07265) (antibody, V domains shown, Humanized 11G2) VH: QVQLVQSGAEVKKPGASVKVSCKASGYTFITYDINWVRQAPGQGLEWIGWIYPRDGNTQYAQKFQGRVTMTTDTSTSTAYMELRSLRSDDTAVYYCARGDRDYGYFDVWGQGTTVTVSS VL: DIQMTPSTSSLSASVGDRVTITCRASQDISNYLNWYQQKPGKAVKLLIYFKSKLHSGVPSRFSGSGSGTDFTLTISSLQPEDFATYYCQQGNTLPLTFGGGTKLELK
EC50 [µg/mL]: 0.0427
--
binder: 11G2huVH4 + huVL2(P07269) (antibody, V domains shown, Humanized 11G2) VH: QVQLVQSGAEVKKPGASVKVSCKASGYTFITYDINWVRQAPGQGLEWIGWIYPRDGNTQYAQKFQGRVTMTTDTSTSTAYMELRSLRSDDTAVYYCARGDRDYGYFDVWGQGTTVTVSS VL: DIQMTQSPSSLSASVGDRVTITCRASQDISNYLNWYQQKPGKAPKLLIYFKSKLHSGVPSRFSGSGSGTDFTLTISSLQPEDFATYYCQQGNTLPLTFGGGTKLEIK
EC50 [µg/mL]: 0.0544

The reported EC50 of the binder 11G2huVH1 + huVL3(P07271) (antibody, V domains shown, Humanized 11G2) VH: QVQLVQSGAEVKKPGASVKLSCKASGYTFITYDINWVRQAPGQGLEWIGWIYPRDGNTQFNENFKGKATMTVDESTSTAYMEVRSLRSDDTAVYYCARGDRDYGYFDVWGQGTTVTVSS VL: DIQMTQSPSSLSASVGDRVTITCQASQDISNYLNWYQQKPGKAPKLLIYFKSKLETGVPSRFSGSGSGTDFTFTISSLQPEDIATYYCQQGNTLPLTFGGGTKLEIK was 0.0715
